Let's look at some molecules and their measured CC50.
- Assay method text: in vitro
- Cond: African green monkey

{"Molecule": "O=C(Nc1ccc(N2CCC2=O)cc1)c1cccc(C#Cc2ccccn2)c1 [Compound 57]", "CC50": "> 30 µM"}

Name the recorded CC50 for O=C(Nc1cccc(C#Cc2ccccn2)c1)c1ccc(N2CCCOC2=O)cc1 [Compound 18] . > 30 µM

Name the recorded CC50 for O=C1CCCc2cc(C(=O)Nc3cccc(C#Cc4ccccn4)c3)ccc2N1 [Compound 4] . 22.9 µM

Name the recorded CC50 for CCOC(=O)Nc1ccc(C(=O)Nc2cccc(C#Cc3ccccn3)c2)cc1 [Compound 11] . > 30 µM

Name the recorded CC50 for COC(=O)c1ccc(C(=O)Nc2cccc(C#Cc3ccccn3)c2)cc1 [Compound 43] . > 30 µM

Name the recorded CC50 for COc1cc(C#Cc2ccccn2)cc(NC(=O)c2ccc(N3CCCCC3=O)cc2)c1 [Compound 48] . > 30 µM

Name the recorded CC50 for O=C(Nc1cccc(C#Cc2ccccn2)c1)c1ccc(N2CCCCC2=O)cc1 [Compound 22] . > 30 µM

Name the recorded CC50 for O=C1Nc2ccc(C(=O)Nc3cccc(C#Cc4ccccn4)c3)cc2CO1 [Compound 3] . 15.8 µM

Name the recorded CC50 for N#Cc1cc(C#Cc2ccccn2)cc(NC(=O)c2ccc(N3CCCCC3=O)cc2)c1 [Compound 78] . > 30 µM

Name the recorded CC50 for Cc1nc2ccc(C(=O)Nc3cccc(C#Cc4ccccn4)c3)cc2o1 [Compound 34] . 26.1 µM

Name the recorded CC50 for O=C(Nc1cc(C#Cc2ccccn2)cc(OCC2CC2)c1)c1ccc(N2CCCCC2=O)cc1 [Compound 53] . > 30 µM

Name the recorded CC50 for O=C(Nc1ccc(C(=O)NC2CCCC2)cc1)c1cccc(C#Cc2ccccn2)c1 [Compound 62] . > 30 µM

Name the recorded CC50 for O=C1CCc2cc(C(=O)Nc3cccc(C#Cc4ccccn4)c3)ccc2N1 [Compound 1] . > 30 µM

Name the recorded CC50 for O=C(Nc1ccc(C(=O)OCC2CC2)cc1)c1cccc(C#Cc2ccccn2)c1 [Compound 66] . > 30 µM

Name the recorded CC50 for COc1cc(C#Cc2ccccn2)cc(C(=O)Nc2ccc(N3CCCCS3(=O)=O)cc2)c1 [Compound 75] . > 30 µM

Name the recorded CC50 for O=C(Nc1cccc(C#Cc2ccccn2)c1)c1ccc(C(=O)NC2CCCC2)cc1 [Compound 39] . > 40 µM

Name the recorded CC50 for N#CC1(c2ccc(C(=O)Nc3cccc(C#Cc4ccccn4)c3)cc2)CC1 [Compound 45] . 20.8 µM

Name the recorded CC50 for O=C(Nc1cccc(C#Cc2ccccn2)c1)c1ccc(-c2nnco2)cc1 [Compound 41] . > 30 µM

----------
Let's look at some compounds and their measured SARS-2 VU-VTR @ 20 μM (A549-hACE2) (logs).
- System: SARS-2
# value in logs; strip the unit string

{"Substance smiles": "O=C(Nc1ccc(C(=O)Nc2cccc(C#Cc3ccccn3)c2)cc1)c1ccc(F)cc1", "Measurement target": "SARS-2", "Observed measurement": 1.16}
{"Substance smiles": "O=C(Nc1ccc(N2CCCCC2=O)cc1)c1cccc(C#Cc2ccccn2)c1", "Measurement target": "SARS-2", "Observed measurement": 2.98}
{"Substance smiles": "CC(=O)Nc1ccc(C(=O)Nc2cccc(C#Cc3ccccn3)c2)cc1F", "Measurement target": "SARS-2", "Observed measurement": 2.6}

Test system SARS-2; read-out SARS-2 VU-VTR @ 20 μM (A549-hACE2) (logs); what value for O=C(Nc1ccc(C(=O)OCC2CC2)cc1)c1cccc(C#Cc2ccccn2)c1 ? 1.73

Test system SARS-2; read-out SARS-2 VU-VTR @ 20 μM (A549-hACE2) (logs); what value for CC1(C)CN(c2ccc(NC(=O)c3cccc(C#Cc4ccccn4)c3)cc2)C1=O ? 1.93

Test system SARS-2; read-out SARS-2 VU-VTR @ 20 μM (A549-hACE2) (logs); what value for COc1cc(C#Cc2ccccn2)cc(NC(=O)c2ccc3c(c2)CCC(=O)N3)c1 ? 2.66

Test system SARS-2; read-out SARS-2 VU-VTR @ 20 μM (A549-hACE2) (logs); what value for O=C(Nc1cccc(C#Cc2ccccn2)c1)c1ccc(NC(=O)C2CCC2)cc1 ? 1.88

Test system SARS-2; read-out SARS-2 VU-VTR @ 20 μM (A549-hACE2) (logs); what value for CC(C)(C)OC(=O)c1ccc(C(=O)Nc2cccc(C#Cc3ccccn3)c2)cc1 ? 2.41

Origin of values: patent US11905306B2
